# study.target: T1, human EphA8 (Homo sapiens, UniProt P29322)
# T1 construct: a protein of the extracellular region of each human Eph receptor fused with the SEAP protein and the His tag; made in house; host or cells: Expi293F cells (culture supernatant)
# T1 sequence (P29322 28-542 limits assumed): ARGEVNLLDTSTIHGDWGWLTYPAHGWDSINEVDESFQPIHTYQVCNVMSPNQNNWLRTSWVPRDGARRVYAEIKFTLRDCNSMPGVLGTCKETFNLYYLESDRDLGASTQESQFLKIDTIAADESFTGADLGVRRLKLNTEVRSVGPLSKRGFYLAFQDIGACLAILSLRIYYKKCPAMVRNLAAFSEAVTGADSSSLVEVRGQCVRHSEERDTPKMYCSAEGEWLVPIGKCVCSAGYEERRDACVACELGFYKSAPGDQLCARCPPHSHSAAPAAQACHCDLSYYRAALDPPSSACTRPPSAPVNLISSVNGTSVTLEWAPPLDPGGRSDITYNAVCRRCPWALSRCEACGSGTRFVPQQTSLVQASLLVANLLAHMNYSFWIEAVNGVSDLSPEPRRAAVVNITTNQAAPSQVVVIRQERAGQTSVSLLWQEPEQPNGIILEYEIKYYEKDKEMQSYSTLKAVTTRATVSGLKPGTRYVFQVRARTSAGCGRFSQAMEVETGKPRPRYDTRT
# method.notes: Selectivity ELISA of humanized antibodies for human Eph receptor
# Assay type: binding
# experimental.setup: coated protein 1 nM
property: hEphA8-SEAP-: absorbance at 450 nm, percentage with respect to hEphA4-SEAP-His as 100% (%)

molecule	readout.value
93 (antibody, V domains shown, constant regions without entry; synthetic humanized antibody light chain variable region sequence; synthetic humanized antibody heavy chain variable region sequence) VL: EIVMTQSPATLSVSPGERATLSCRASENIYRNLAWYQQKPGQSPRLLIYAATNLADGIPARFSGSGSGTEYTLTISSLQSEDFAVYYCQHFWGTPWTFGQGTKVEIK VH: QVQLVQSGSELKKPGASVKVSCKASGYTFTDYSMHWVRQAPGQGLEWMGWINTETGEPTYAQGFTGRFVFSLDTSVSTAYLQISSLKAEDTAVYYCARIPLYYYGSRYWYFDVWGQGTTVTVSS	5.0
151 (antibody, V domains shown, synthetic humanized antibody heavy chain variable region sequence; synthetic humanized antibody light chain variable region sequence) VH: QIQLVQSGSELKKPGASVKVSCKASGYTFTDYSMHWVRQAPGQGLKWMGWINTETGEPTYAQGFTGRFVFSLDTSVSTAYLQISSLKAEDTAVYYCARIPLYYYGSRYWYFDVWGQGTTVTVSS VL: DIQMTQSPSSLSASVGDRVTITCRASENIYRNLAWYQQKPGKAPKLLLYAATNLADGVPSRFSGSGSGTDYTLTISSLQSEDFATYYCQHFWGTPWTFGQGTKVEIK	6.9
87 (antibody, V domains shown, constant regions without entry; synthetic humanized antibody light chain variable region sequence; synthetic humanized antibody heavy chain variable region sequence) VL: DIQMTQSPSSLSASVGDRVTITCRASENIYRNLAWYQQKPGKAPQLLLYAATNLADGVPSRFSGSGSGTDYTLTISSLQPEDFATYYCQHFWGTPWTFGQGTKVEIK VH: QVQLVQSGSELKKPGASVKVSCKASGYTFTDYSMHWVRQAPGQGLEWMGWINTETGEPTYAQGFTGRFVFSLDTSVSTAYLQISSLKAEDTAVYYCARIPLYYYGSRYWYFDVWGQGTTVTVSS	5.7
77 (antibody, V domains shown, synthetic humanized antibody heavy chain variable region sequence; synthetic humanized antibody light chain variable region sequence) VH: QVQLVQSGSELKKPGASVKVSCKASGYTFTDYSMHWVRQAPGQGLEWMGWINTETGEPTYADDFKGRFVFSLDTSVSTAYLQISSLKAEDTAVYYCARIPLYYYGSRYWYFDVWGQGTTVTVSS VL: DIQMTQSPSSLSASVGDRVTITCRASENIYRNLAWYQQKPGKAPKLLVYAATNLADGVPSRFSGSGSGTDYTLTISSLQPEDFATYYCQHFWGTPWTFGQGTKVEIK	4.8
85 (antibody, V domains shown, constant regions without entry; synthetic humanized antibody light chain variable region sequence; synthetic humanized antibody heavy chain variable region sequence) VL: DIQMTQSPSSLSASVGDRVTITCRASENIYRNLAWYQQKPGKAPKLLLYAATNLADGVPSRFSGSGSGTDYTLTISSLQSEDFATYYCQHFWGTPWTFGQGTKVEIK VH: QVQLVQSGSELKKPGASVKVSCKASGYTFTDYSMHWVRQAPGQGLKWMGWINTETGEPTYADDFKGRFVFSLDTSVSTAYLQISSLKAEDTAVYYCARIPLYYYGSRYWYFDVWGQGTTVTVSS	5.5
140 (antibody, V domains shown, synthetic humanized antibody heavy chain variable region sequence; synthetic humanized antibody light chain variable region sequence) VH: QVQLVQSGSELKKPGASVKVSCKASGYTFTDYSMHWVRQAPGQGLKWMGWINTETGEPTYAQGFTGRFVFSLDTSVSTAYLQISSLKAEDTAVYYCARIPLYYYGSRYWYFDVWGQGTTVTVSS VL: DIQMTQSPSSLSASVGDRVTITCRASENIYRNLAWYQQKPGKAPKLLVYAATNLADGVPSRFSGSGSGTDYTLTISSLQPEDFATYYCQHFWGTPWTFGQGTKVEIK	5.4
81 (antibody, V domains shown, constant regions without entry; synthetic humanized antibody light chain variable region sequence; synthetic humanized antibody heavy chain variable region sequence) VL: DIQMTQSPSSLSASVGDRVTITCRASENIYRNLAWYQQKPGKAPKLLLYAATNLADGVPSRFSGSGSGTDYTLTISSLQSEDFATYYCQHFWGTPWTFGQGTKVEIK VH: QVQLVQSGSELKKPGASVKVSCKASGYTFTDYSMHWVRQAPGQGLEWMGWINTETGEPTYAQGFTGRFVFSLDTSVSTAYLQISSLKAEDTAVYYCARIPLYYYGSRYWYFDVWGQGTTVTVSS	5.2

These data points were gathered from patent US10428140B2.
